test system: MALME-3M melanoma; assay: NCI tumour cell line growth inhibition, 48 h
This listing pairs molecules with measured TGI.

Completed entries (count: 2):
>  <MOLECULE>
C/C(CC(=O)Nc1cccc(Cl)c1C)=N\NC(N)=S

>  <RESULT>
> 100 µM

$$$$
>  <MOLECULE>
Cc1cc(-n2nnc(C(=O)O)c2-c2ccccc2)c2ccc(Cl)cc2n1

>  <RESULT>
> 100 µM

$$$$

Tell me measured TGI for N#CC1(C#N)C(C#N)(C#N)C1(C#N)C(N)=O please.
> 100 µM

Tell me measured TGI for CCn1c(=O)c2nc(SC)sc2n(-c2ccc(C)cc2)c1=O please.
> 81.7 µM

Tell me measured TGI for NNC(=O)Nc1nc2ccc(NN)cc2[nH]1 please.
> 100 µM

Tell me measured TGI for Fc1cccc(F)c1C1SCc2nc3cc(Cl)c(Cl)cc3n21 (stereo unspecified) please.
> 100 µM

Tell me measured TGI for CN(C)Cc1ccc(-c2cc3onc(-c4ccccc4)c3c(=O)n2C)cc1 please.
72.5 µM

---

system: SF-268 CNS; experiment: NCI tumour cell line growth inhibition, 48 h
PROPERTY MEASURED: TGI

Completed entries (count: 8):
>  <COMPOUND>
O[C@@H]1C=C[C@]23CCN(Cc4cc5c(cc42)OCO5)[C@@H]3C1

>  <SUBJECT OF TEST>
SF-268 CNS

>  <TGI>
> 100 µM

$$$$
>  <COMPOUND>
COc1cc(-c2nc3ccccc3s2)ccc1OCCCCOc1cc2c(cc1OC)C(=O)N1CCC[C@H]1C=N2

>  <SUBJECT OF TEST>
SF-268 CNS

>  <TGI>
4.65 µM

$$$$
>  <COMPOUND>
CSC(=S)Nc1cc(C)cc(C)n1

>  <SUBJECT OF TEST>
SF-268 CNS

>  <TGI>
> 31.6 µM

$$$$
>  <COMPOUND>
Cc1cn(C2CCC(CO)(CF)O2)c(=O)[nH]c1=O (stereo not given)

>  <SUBJECT OF TEST>
SF-268 CNS

>  <TGI>
> 100 µM

$$$$
>  <COMPOUND>
COc1cc2cc(C(=O)N3CC(COS(C)(=O)=O)c4ccc(NC(=O)OCc5ccccc5)cc43)[nH]c2c(OC)c1OC (stereo not given)

>  <SUBJECT OF TEST>
SF-268 CNS

>  <TGI>
> 100 µM

$$$$
>  <COMPOUND>
O=C1COc2cc(N3CCN(c4cccc(C(F)(F)F)c4)CC3)ccc2N1

>  <SUBJECT OF TEST>
SF-268 CNS

>  <TGI>
> 100 µM

$$$$
>  <COMPOUND>
Cn1nc2ccc(Nc3cc(=O)[nH]c4ccc5nn(C)nc5c34)cc2n1

>  <SUBJECT OF TEST>
SF-268 CNS

>  <TGI>
> 100 µM

$$$$
>  <COMPOUND>
Cc1nc2cc(F)c(F)cc2[nH]c1=O

>  <SUBJECT OF TEST>
SF-268 CNS

>  <TGI>
> 100 µM

$$$$

Tell me measured TGI for COc1cc(/C=C/c2ccc(C)cc2)cc(OC)c1OC please.
11.2 µM

Tell me measured TGI for C/C(=C\c1ccn(-c2ccccc2N)n1)[C@@H]1C[C@@H]2O[C@]2(C)CCC[C@H](C)[C@H](O)[C@@H](C)C(=O)C(C)(C)[C@@H](O)CC(=O)O1 please.
> 50 µM

---

This listing pairs molecules with measured TGI.
test system: MOLT-4 leukemia; assay: NCI tumour cell line growth inhibition, 48 h
*1 amine or outer side, *2 acyl side, *3 side chain or, on linkers, in order; H or OH if unused. Where a SMILES comes first, the peptide text is derived from it. Bridges are numbered along the chain shown (N, C = ends). Roman numbers before positions name the chains, in order. [ ]: non-standard residue; d: D form. Actinocin(9to1) = Cc1c2oc3c(C)ccc(C(=O)[*:1])c3nc-2c(C(=O)[*:2])c(N)c1=O; NMeV = CN[CH](C(=O)O)C(C)C; Sar = CNCC(=O)O

>  <MOLECULE>
OCCCCC#Cc1ccccc1C#Cc1ccc(O)cc1

>  <TGI>
38.9 µM

$$$$
>  <MOLECULE>
O=[N+]([O-])c1ccc(NN=C2CN3CCN(C2)c2ccccc23)c([N+](=O)[O-])c1

>  <TGI>
> 100 µM

$$$$
>  <MOLECULE>
COC(=O)[C@H](Cc1c[nH]c2ccccc12)NP(=O)(OCCC#N)OCC1OC(n2cc(C)c(=O)[nH]c2=O)CC1N=[N+]=[N-] (stereo not given in full)

>  <TGI>
> 100 µM

$$$$

Tell me measured TGI for CC(C)(C)OC(=O)[C@@H]1CCC(=O)N1C1(c2ccccc2)c2ccccc2-c2ccccc21 please.
51.5 µM

Tell me measured TGI for COc1ccc([C@H](CC(=O)O)N2CCN(CCCc3ccc4c(n3)NCCC4)C2=O)cn1 please.
> 100 µM

Tell me measured TGI for Cn1nc2ccc(Nc3cc(=O)[nH]c4ccc5nn(C)nc5c34)cc2n1 please.
> 100 µM

Tell me measured TGI for Cc1c2oc3c(C)ccc(C(=O)NC4C(=O)NC(Cc5ccccc5)C(=O)N5CCCC5C(=O)N(C)CC(=O)N(C)C(C(C)C)C(=O)OC4C)c3nc-2c(C(=O)NC2C(=O)NC(Cc3ccccc3)C(=O)N3CCCC3C(=O)N(C)CC(=O)N(C)C(C(C)C)C(=O)OC2C)c(N)c1=O (stereo not given) (I: TFP[Sar][NMeV] / II: TFP[Sar][NMeV]; ester I:1-I:C, II:1-II:C; linker I:N-II:N via Actinocin(9to1); configuration not given here) please.
< 0.001 µM

Tell me measured TGI for C1=C(c2ccccc2)C(N2CCOCC2)Oc2ccccc21 (stereo not given) please.
> 100 µM

Tell me measured TGI for Oc1c(C(Nc2ccccc2Br)c2ccccc2)ccc2cccnc12 (stereo not given) please.
7.56 µM

Tell me measured TGI for O=c1[nH]c(=O)n(C2CC(O)C(CO)O2)cc1Oc1ccccc1 (stereo not given) please.
> 100 µM

---

system: UO-31 renal; assay: NCI tumour cell line growth inhibition, 48 h
PROPERTY MEASURED: GI50

>  <COMPOUND>
CN1CCN(Cc2c[nH]c3c2C(=O)c2c(c(O)c4ccccc4c2O)C3=O)CC1

>  <SUBJECT OF TEST>
UO-31 renal

>  <RESULT>
11.2 µM

$$$$

Tell me measured GI50 for CC1=CC2C(C(O)CC3(C)C2CC(C)C32OCOC23COCO3)C2(C)C/C(=C/O)C(=O)C=C12 (centres undefined) please.
1.52 µM

Tell me measured GI50 for CCCCC(SC(=S)N1CCCC1)C(=O)Nc1nc(CC(=O)OCC)cs1 (centres undefined) please.
36.9 µM

Tell me measured GI50 for CO/N=C(\COc1ccc2c(=O)c3ccccc3oc2c1)c1ccccc1 please.
24.2 µM

---

This listing pairs compounds with measured TGI.
tested on: OVCAR-3 ovarian; assay: NCI tumour cell line growth inhibition, 48 h
Only the number, expressed in µM, is required.

Completed entries (count: 2):
>  <TEST SMILES>
O=C1CCc2c(sc3[nH]c(=S)n(-c4cc(C(F)(F)F)cc(C(F)(F)F)c4)c(=O)c23)C1

>  <TGI / µM>
1.49

$$$$
>  <TEST SMILES>
CO/N=C(\COc1ccc2c(=O)c3ccccc3oc2c1)c1ccccc1

>  <TGI / µM>
79.3

$$$$

Tell me measured TGI for O=c1c2cc(C(F)(F)F)ccc2sc2c(NCCCNCCO)nc3ccccc3c12 please.
3.17

---

system: LOX IMVI melanoma; assay: NCI tumour cell line growth inhibition, 48 h
This listing pairs compounds with measured TGI.
Only the number, expressed in µM, is required.

>  <COMPOUND>
COc1cc(-c2nc3ccccc3s2)ccc1OCCCCOc1cc2c(cc1OC)C(=O)N1CCC[C@H]1C=N2

>  <SUBJECT OF TEST>
LOX IMVI melanoma

>  <TGI / µM>
2.22

$$$$
>  <COMPOUND>
O=[N+]([O-])/C=C/c1c(Cl)cccc1Cl

>  <SUBJECT OF TEST>
LOX IMVI melanoma

>  <TGI / µM>
3.16

$$$$
>  <COMPOUND>
OC1(c2ccccc2)C2CC=CC2C1(c1ccccc1)c1ccccc1 (stereo not given)

>  <SUBJECT OF TEST>
LOX IMVI melanoma

>  <TGI / µM>
37.9

$$$$

Turning now to a further compound:
Tell me measured TGI for COc1cc2c3c(n(CCCN)c(=O)c2cc1OC)-c1ccc([N+](=O)[O-])cc1C3=O please.
16.6

src = PubChem BioAssay (NCI)
